Values compiled from the supplement of paper PMC10981050.

cell viability: recorded values
System: MARIMO
run-description: cell viability relative to vehicle control; higher = less cytotoxic;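 also: after 48 h exposure read by CellTiter-Glo luminescence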
assay-setup: 10 µM; SRSF2 genotype: SRSF2 wt/wt
attribute-measured: cell viability (%)

compound	result-value
CC[C@@H]1/C=C(\C)C[C@H](C)C[C@H](OC)[C@H]2O[C@@](O)(C(=O)C(=O)N3CCCC[C@H]3C(=O)O[C@H](/C(C)=C/[C@@H]3CC[C@H](Cl)[C@H](OC)C3)[C@H](C)[C@@H](O)CC1=O)[C@H](C)C[C@@H]2OC [Pimecrolimus]	70.7
C=C1C[C@@]23CC[C@H]4[C@@](C)(CCC[C@@]4(C)C(=O)O[C@@H]4O[C@H](CO)[C@@H](O)[C@H](O)[C@H]4O)[C@@H]2CC[C@]1(O[C@@H]1O[C@H](CO)[C@@H](O)[C@H](O[C@@H]2O[C@H](CO)[C@@H](O)[C@H](O)[C@H]2O)[C@H]1O[C@@H]1O[C@H](CO)[C@@H](O)[C@H](O)[C@H]1O)C3 [Rebaudioside A]	106
N#Cc1ccc(COC[C@H]2O[C@@H](n3c(NCc4ccc(Cl)c(Cl)c4)nc4c(N)ncnc43)[C@H](O)[C@@H]2O)cc1	35.6
COC(=O)C1=C(C)NC(C)=C(C(=O)OCCN2CCN(C(c3ccccc3)c3ccccc3)CC2)C1c1cccc([N+](=O)[O-])c1 (stereo not given) [Manidipine (Manyper)]	58.5
CC(C)S(=O)(=O)c1ccc2nccc(Nc3ccc4scnc4c3)c2c1	108

----------
Test system: K562
run-description: cell viability relative to vehicle control; higher = less cytotoxic
assay-setup: 10 µM; SRSF2 genotype: SRSF2 wt/wt
Counter-ions that a name gives are not always drawn.
attribute-measured: cell viability (%)

molecule	result-value
Clc1ccc(C(c2c[nH]c3ccccc23)c2c[nH]c3ccccc23)cc1	76.5
Nc1ccc(Oc2ccc(-c3ccc(Oc4ccc(N)cc4)cc3)cc2)cc1	110
S=c1[nH]cnc2nc[nH]c12	34.1
O=C1c2ccccc2C(=O)c2c1ccc(O)c2O	101
CN(C)CC(=O)Nc1ccc2[nH]c(=O)c3ccccc3c2c1	94.9
CNC(=O)c1ccccc1Nc1cc(Nc2ccc(N3CCOCC3)cc2OC)ncc1C(F)(F)F	82.8
COc1ccc([C@@H]2Sc3ccccc3N(CCN(C)C)C(=O)[C@@H]2OC(C)=O)cc1 [Diltiazem HCl]	91.9
C[C@]12CCC3=C4CCC(=O)C=C4CC[C@H]3[C@@H]1CC[C@@]2(O)CC#N	102
CCCCCCCCCC[C@H](C(=O)O)[C@]1(C(=O)O)CCC(=O)O1	103
CNC(CC(=O)O)C(=O)O (stereo not given)	99.7
CCn1cc(-c2cccc(C(F)(F)F)c2)c2sc(C(=N)NC3CCS(=O)(=O)CC3)cc2c1=O	69.9
C=Cc1c(C)c2cc3nc(cc4[nH]c(cc5nc(cc1[nH]2)C(C)=C5CCC(=O)O)c(CCC(=O)OC)c4C)C1(C)C3=CC=C(C(=O)OC)C1C(=O)OC (stereo not given)	70.6
CC(C)CC(=O)Nc1n[nH]c2c1CN(C(=O)C1CCN(C)CC1)C2(C)C	38.4
Nc1nc(=S)c2ncn([C@H]3C[C@H](O)[C@@H](CO)O3)c2[nH]1	29.9
CC(C)C[C@@H](C=O)NC(=O)[C@H](CC(C)C)NC(=O)[C@H](CC(C)C)NC(=O)OCc1ccccc1	1.37
CO/N=C(\C(=O)N[C@@H]1C(=O)N2C(C(=O)O)=CCS[C@H]12)c1csc(N)n1	110
Cc1c(C)c2c(c(C)c1OC(=O)CCC(=O)OCCOCCOCCO)CCC(C)(CCCC(C)CCCC(C)CCCC(C)C)O2 (stereo not given)	92.4
C=CC(=O)Nc1cccc(Nc2nc(Nc3ccc(NC4CN(CCF)C4)cc3OC)ncc2C(F)(F)F)c1	64.8
CC(=O)OCC(=O)[C@@]1(O)CC[C@H]2[C@@H]3CCC4=CC(=O)C=C[C@]4(C)[C@H]3[C@@H](O)C[C@@]21C [Prednisolone acetate (Omnipred)]	84.8
C=C1CC2(O)OC3(CC2C(C)C)C(C)CCC13 (stereo not given)	102
CC1(C)CCCC2(C)C1CCC1(C)OC(=O)CC12 (stereo not given) [Sclareolide (Norambreinolide)]	99.8
COc1cc2ncc(-c3ccccc3)nc2cc1OC	93
CC(C)=CCC[C@@](C)(O)[C@H]1CC[C@@]2(C)[C@@H]1[C@H](O)C[C@@H]1[C@@]3(C)CC[C@H](O)C(C)(C)C3CC[C@]12C (stereo partly drawn) [(20R)-Protopanaxdiol]	96
Nc1ccc(S(=O)(=O)Nc2cncc(Cl)n2)cc1 [Sulfalozine sodium]	104
Cc1ncc([N+](=O)[O-])n1CC(C)O (stereo not given)	106
CCC(C)SSc1ncc[nH]1 (stereo not given)	11.6
O=S(=O)(O)CCSSCCS(=O)(=O)O	95
CC1(C)C=Cc2c(ccc3c2OC[C@@H](c2ccc(O)cc2O)C3)O1	76.9
O=c1[nH]nc2c3c(cccc13)N=C(CN1Cc3ccccc3C1)N2	66.3
OCCn1cc(-c2ccc3c(c2)CC/C3=N\O)c(-c2ccncc2)n1	111
Nc1nc2c(ncn2COCCO)c(=O)[nH]1	95.1
CC/C=C(\C(=O)N[C@@H]1C(=O)N2C(C(=O)OCOC(=O)C(C)(C)C)=C(COC(N)=O)CS[C@H]12)c1csc(N)n1 [Cefcapene Pivoxil Hydrochloride]	109
Oc1cc(O)c(Cl)cn1	92.4
CCCCc1nc2cc(/C=C/C(=O)NO)ccc2n1CCN(CC)CC	4.32
O=C(c1cc(Cc2n[nH]c(=O)c3ccccc23)ccc1F)N1CCN(C(=O)C2CC2)CC1	97.2
